Data provenance: patent US20160053025A1

Target: T1, recombinant hAng-2 (C-His, R&D Systems) (human, UniProt O15123 19-496)
T1 construct: Bought protein; also called human Ang-2 protein; C-terminal histidine-tagged human Ang2 (R&D Systems); not shown: C-terminal His tag
T1 sequence: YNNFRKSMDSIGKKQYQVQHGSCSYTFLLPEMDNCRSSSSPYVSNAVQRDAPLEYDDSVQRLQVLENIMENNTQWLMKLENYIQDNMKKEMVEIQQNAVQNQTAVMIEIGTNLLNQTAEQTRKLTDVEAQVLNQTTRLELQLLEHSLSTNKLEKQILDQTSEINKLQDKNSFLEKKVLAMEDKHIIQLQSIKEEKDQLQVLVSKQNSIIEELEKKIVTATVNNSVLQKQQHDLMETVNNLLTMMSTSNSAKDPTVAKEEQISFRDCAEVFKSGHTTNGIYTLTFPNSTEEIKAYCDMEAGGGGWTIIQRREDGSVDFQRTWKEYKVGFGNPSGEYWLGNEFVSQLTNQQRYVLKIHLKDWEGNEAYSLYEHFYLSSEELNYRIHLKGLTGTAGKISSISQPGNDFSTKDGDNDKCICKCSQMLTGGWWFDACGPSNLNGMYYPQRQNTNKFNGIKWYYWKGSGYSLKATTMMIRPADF
Experiment: SPR, BIAcore T100; hAng2 (C-His) captured by anti-His antibody on CM5, antibody as analyte
Endpoint: koff (s⁻¹)
Enter your answer as a number in s⁻¹; do not include the unit.

- Binder: "h10D6-OPTI-43 (antibody, human IgG1, V domains shown) VH: QVQLQESGPGLVKPSETLSLTCAVSGYSITSDYAWNWIRQPPGKGLEWMGKISYSGKTDYNPSLKSRSTISRDTSKNQFSLKLSSVTAADTAVYYCARGNFEGAMDYWGQGTLVTVSS VL: DIQMTQSPSSLSASVGDRVTITCKASQSVSNDVHWYQQKPGKAPKLLIYYASNRYPGVPSRFSGSGSGTDFTLTISSLQPEDFATYYCQQDYSSPWTFGQGTKLEIK"
  Result: 0.000576

Could you now look at the following binder, please?
Query 10D6-HU3 (antibody, V domains shown, Humanized antibody; also called humanized antibody 10D6-HU3) VH: EVQLVESGGGLVQPGGSLRLSCAASGYSITSDYAWNWVRQAPGKGLEWMGYINYSGNTDYNPSLKSRSTISRDTSKNTFYLQMNSLRAEDTAVYYCARGNFEGAMDYWGQGTLVTVSS VL: DIQMTQSPSSLSASVGDRVTITCKASQSVSNDVAWYQQKPGKAPKLLIYYASNRYPGVPSRFSGSGSGTDFTLTISSLQPEDFATYYCQQDYSSPWTFGQGTKLEIK yields koff of 0.00194
